Entries annotated with measured %Inh
test system: MAK; settings: concentration: 1 μM, replicates: in singlicate; n = 1;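 further: KINOMEscan kinase panel screen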
Please reply with the bare figure in % and do not write the unit itself.

Observe how each entry below is paired with its result.
CS(=O)(=O)CCNCc1nc(-c2ccc3ncnc(Nc4ccc(OCc5ccccc5)c(Cl)c4)c3c2)cs1.Cl [GW582764] tested on MAK gave %Inh: 26

COC(=O)c1cccc(NC(=O)NC2CCN(c3ccnc(Nc4ccc(F)cc4)n3)C2)c1 (stereo not shown) [GSK1379725] tested on MAK gave %Inh: 16

CS(=O)(=O)Cc1ccc(Nc2nccc(-c3c(-c4cccc(NC(=O)C5CCCCC5)c4)nn4ncccc34)n2)cc1 [GSK350559] tested on MAK gave %Inh: 0

Let's switch to this molecule now.
Cc1cccc2c(-c3ccncn3)c(-c3ccc(F)cc3)nn12 [GW515532] tested on MAK gave %Inh: 57

----------
tested on: GCN2(Kin.Dom.2,S808G); construct: gene EIF2AK4; settings: concentration: 1 μM, replicates: in singlicate; n = 1
Entries annotated with measured %Inh

Cc1ccc(-c2nc(Nc3ccncc3)c3ccccc3n2)s1 tested on GCN2(Kin.Dom.2,S808G) gave %Inh: 13%

Next:
CC(C)c1ccc(O)cc1Nc1ccnc2ccc(C(F)(F)F)cc12 tested on GCN2(Kin.Dom.2,S808G) gave %Inh: 0%

Cc1ccc(NC(=O)Nc2ccc(Cl)cc2)cc1-c1ccc(C(=O)Nc2ccncc2)cc1 tested on GCN2(Kin.Dom.2,S808G) gave %Inh: 17%

----------
Entries annotated with measured %Inh
test system: VEGFR2; construct: gene KDR; details: concentration: 1 μM, replicates: in singlicate; n = 1
Please reply with the bare figure in % and do not write the unit itself.

Lab note: COC(=O)C(NC(=O)NC1CCN(c2ccnc(Nc3ccc(F)cc3)n2)C1)c1ccccc1 (centres unmarked) [GSK1379712] gave %Inh of 14

Lab note: CSc1ccc(-c2nc3n(c2-c2ccncc2)CCC3)cc1 [SKF-105561] gave %Inh of 11

Lab note: O=C1NC(=O)C(c2ccc(Cl)cc2)=C1Nc1ccc(O)cc1 [SB-340867] gave %Inh of 0

Lab note: CC(=O)c1cccc(NC(=O)NC2CCN(c3ccnc(Nc4ccc(F)cc4)n3)C2)c1 (centres unmarked) [GSK1379710] gave %Inh of 8

Let's switch to this compound now.
Lab note: CN1c2ccc(-c3ccc(C(N)=O)cc3)cc2-c2[nH]ncc2S1(=O)=O gave %Inh of 21

----------
test system: SGK2; settings: concentration: 1 μM, replicates: in singlicate; n = 1
Entries annotated with measured %Inh
Please reply with the bare figure in % and do not write the unit itself.

Observe how each entry below is paired with its result.
Lab note: COc1ccc(-c2coc3ccc(-c4nnc(C)o4)cc23)cc1 gave %Inh of 0

Lab note: Fc1ccc(-c2nn3cccc(F)c3c2-c2ccncc2)cc1 gave %Inh of 11

Lab note: CNCc1ccc2nc(NC(=O)c3ccc(C(C)(C)C)cc3)cn2c1 gave %Inh of 12

Lab note: CS(=O)(=O)CCNCc1nc(-c2ccc3ncnc(Nc4ccc(OCc5ccccc5)c(Cl)c4)c3c2)cs1.Cl gave %Inh of 0

Lab note: Cc1ccc(NC(=O)Nc2ccc(Cl)c(C(F)(F)F)c2)cc1-c1ccc(C(=O)Nc2ccncc2)cc1 gave %Inh of 0

Lab note: CN1c2ccc(-c3ccc(C(N)=O)cc3)cc2-c2[nH]ncc2S1(=O)=O gave %Inh of 8

Lab note: Cn1cnc2c(N)ncnc21 gave %Inh of 0

Lab note: Cn1cncc1C(=O)NC1CCN(c2ccnc(Nc3ccc(F)cc3)n2)C1 (stereo not shown) gave %Inh of 7

Next:
Lab note: CC(C)c1ccc(O)cc1Nc1ccnc2ccc(C(F)(F)F)cc12 gave %Inh of 0

Lab note: O=C1NC(=O)C(c2ccc(Cl)cc2)=C1Nc1ccc(O)cc1 gave %Inh of 0
